Target: T1, human GIP receptor (human) (UniProt P48546)
T1 sequence (looked up): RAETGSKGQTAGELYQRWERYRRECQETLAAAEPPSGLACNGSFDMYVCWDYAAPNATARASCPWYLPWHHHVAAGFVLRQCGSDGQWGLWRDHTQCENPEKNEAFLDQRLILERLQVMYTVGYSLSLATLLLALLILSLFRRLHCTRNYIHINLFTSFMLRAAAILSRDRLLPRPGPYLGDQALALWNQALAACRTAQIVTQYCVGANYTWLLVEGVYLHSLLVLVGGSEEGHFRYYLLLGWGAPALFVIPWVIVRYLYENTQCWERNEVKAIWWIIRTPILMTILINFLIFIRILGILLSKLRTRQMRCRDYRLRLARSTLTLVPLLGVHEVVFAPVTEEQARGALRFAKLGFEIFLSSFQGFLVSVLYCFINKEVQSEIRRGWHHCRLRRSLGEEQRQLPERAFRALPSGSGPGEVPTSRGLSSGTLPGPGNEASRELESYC
Test: cell-based or functional assay
Response field label: string, one of satisfied (Relative cAMP EC50 strictly below 0.2 nM) or not satisfied.

{"BINDER": "YXQGTFTSDFSKXLDKKAQXAFIEYLLAGGPSSGEPPPSEG (Aib, αMeL; acyl on Lys; C-terminal amide; synthetic construct; SITE 2: note = 2-Aminoisobutyric Acid; SITE 13: note = alpha-methyl-leucine; SITE 17: note = Lysine is chemically modified through conjugation of the epsilon-amino group of the Lysine side chain with (2-[2-(2-Amino-ethoxy)-ethoxy]-acetyl)-(gamma-Glu)-CO-(CH2) 16-CO2H; SITE 20: n) [Example 22]", "CLASS_LABEL": "not satisfied"}

Data request: # check: Relative cAMP EC50 < 0.2 nM for YXQGTFTSDXSKXLDKKAQXAFIEYLIAXGESSGAPPPSGS (synthetic construct; SITE 2: note = 2-Aminoisobutyric Acid; SITE 10: note = 3-(4-Pyridyl)-L-alanine; SITE 13: note = alpha-methyl-leucine; SITE 17: note = Lysine is chemically modified through conjugation of the epsilon-amino group of the Lysine side chain with (2-[2-(2-Amino-ethoxy)-ethoxy]-acetyl)) [Example 285]
Data returned: satisfied

Data request: Given YXQGTFTSDXSQXLDXKAQXAFIEYLIAGGPSSGEPPPSGSGE (synthetic construct; SITE 2: note = 2-Aminoisobutyric Acid; SITE 10: note = 3-(4-Pyridyl)-L-alanine; SITE 13: note = alpha-methyl-leucine; SITE 16: note = L-ornithine; SITE 17: note = Lysine is chemically modified through conjugation of the epsilon-amino group of the Lysine side chain with (gamma-Gl)) [Example 978] , is recorded Relative cAMP EC50 strictly lower than 0.2 nM?
Data returned: not satisfied

Data request: Does YXQGTFTSDFSXXLDKKAQXAFIEYLLAGGPSSGEPPPSGE (synthetic construct; SITE 2: note = 2-Aminoisobutyric Acid; SITE 12: note = L-ornithine; SITE 13: note = alpha-methyl-leucine; SITE 17: note = Lysine is chemically modified through conjugation of the epsilon-amino group of the Lysine side chain with (2-[2-(2-Amino-ethoxy)-ethoxy]-acetyl)-(gamma-Glu)) [Example 97] have Relative cAMP EC50 strictly under 0.2 nM?
Data returned: satisfied

Data request: Here's an entry: YXQGTXTSDXSIXLDKKAQXXFIEYLTEGGPSSGEPPPSGSEE (Aib, αMeF(2F), 4Pal, αMeL, Orn; γGlu2-C18 diacid Lys; amide; synthetic construct; SITE 2: note = 2-Aminoisobutyric Acid; SITE 6: note = alpha-methyl-2-fluoro-L-phenylalanine; SITE 10: note = 3-(4-Pyridyl)-L-alanine; SITE 13: note = alpha-methyl-leucine; SITE 17: note = Lysine is chemically modified through conjugation of the epsilon-amino group of the Lysine) [Example 638] . Is its Relative cAMP EC50 below 0.2 nM?
Data returned: satisfied

Data request: Hi there! Is Relative cAMP EC50 for YXQGTFTSDFSXXLDKKAQXAFIEYLLEAGPSSGAPPPSGE (synthetic construct; SITE 2: note = 2-Aminoisobutyric Acid; SITE 12: note = L-ornithine; SITE 13: note = alpha-methyl-leucine; SITE 17: note = Lysine is chemically modified through conjugation of the epsilon-amino group of the Lysine side chain with (2-[2-(2-Amino-ethoxy)-ethoxy]-acetyl)-(gamma-Glu)) [Example 129] below 0.2 nM, do you know?
Data returned: satisfied

Provenance of the data: patent US20240270821A1
